Reference source for all entries: paper PMC9884089

Hi there, I'd appreciate the recorded Papp at 5 h, 500 μM for every entry that follows.
Assay: PAMPA, gastrointestinal tract (GI) permeability
Type: in vitro ADME
Details: phosphatidylcholine, pH 7.4, 5 h
Answers are plain numbers, in ×10⁻⁶ cm/s.

* Cc1ccc2c(c1)sc1nnc(N)n12 | 0.281

Turning to the following molecule.
Find the recorded Papp at 5 h, 500 μM belonging to `COc1ccc(OC)c2c1sc1nnc(N)n12` and report it.
0.144

###

Molecular target: Human PARP6 (Homo sapiens, UniProt Q2NL67)
Construct: Human PARP6 (Uniprot #Q2NL67-1) was cloned into a modified pFASTBac1 vector; 6× His-MBP with TEV protease site (N, cleaved yes)
Sequence (Q2NL67 whole entry): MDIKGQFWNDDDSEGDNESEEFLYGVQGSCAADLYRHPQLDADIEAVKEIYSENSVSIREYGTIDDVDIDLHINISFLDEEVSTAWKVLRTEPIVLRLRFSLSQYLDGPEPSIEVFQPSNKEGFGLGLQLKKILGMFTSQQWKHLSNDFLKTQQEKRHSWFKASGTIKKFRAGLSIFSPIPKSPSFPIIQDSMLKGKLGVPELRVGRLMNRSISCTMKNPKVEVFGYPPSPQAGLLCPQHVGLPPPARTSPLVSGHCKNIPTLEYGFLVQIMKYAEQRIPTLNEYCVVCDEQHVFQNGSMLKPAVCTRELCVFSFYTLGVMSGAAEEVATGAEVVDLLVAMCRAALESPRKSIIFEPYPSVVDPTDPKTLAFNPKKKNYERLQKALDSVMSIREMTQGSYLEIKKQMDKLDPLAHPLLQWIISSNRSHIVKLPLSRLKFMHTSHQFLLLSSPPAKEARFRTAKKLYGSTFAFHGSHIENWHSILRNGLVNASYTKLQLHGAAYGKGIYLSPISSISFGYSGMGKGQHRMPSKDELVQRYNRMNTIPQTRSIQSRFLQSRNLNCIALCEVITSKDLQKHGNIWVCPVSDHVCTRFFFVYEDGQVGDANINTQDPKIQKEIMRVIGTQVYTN
Assay: PARP6 inhibition assay (400 nM PARP6, 500 nM NAD+, 18 h)
Details: ≫ no inhibition at the concentration; > less than 50% inhibition
METRIC_NAME: pIC50
Answers are plain numbers, as −log10 of the molar value.

Find the recorded pIC50 belonging to `COc1ccc(OC)c2c1sc1nnc(N)n12` and report it.
5.11

###

Target: TNKS2 (Homo sapiens, UniProt Q9H2K2)
Sequence (Q9H2K2 whole entry): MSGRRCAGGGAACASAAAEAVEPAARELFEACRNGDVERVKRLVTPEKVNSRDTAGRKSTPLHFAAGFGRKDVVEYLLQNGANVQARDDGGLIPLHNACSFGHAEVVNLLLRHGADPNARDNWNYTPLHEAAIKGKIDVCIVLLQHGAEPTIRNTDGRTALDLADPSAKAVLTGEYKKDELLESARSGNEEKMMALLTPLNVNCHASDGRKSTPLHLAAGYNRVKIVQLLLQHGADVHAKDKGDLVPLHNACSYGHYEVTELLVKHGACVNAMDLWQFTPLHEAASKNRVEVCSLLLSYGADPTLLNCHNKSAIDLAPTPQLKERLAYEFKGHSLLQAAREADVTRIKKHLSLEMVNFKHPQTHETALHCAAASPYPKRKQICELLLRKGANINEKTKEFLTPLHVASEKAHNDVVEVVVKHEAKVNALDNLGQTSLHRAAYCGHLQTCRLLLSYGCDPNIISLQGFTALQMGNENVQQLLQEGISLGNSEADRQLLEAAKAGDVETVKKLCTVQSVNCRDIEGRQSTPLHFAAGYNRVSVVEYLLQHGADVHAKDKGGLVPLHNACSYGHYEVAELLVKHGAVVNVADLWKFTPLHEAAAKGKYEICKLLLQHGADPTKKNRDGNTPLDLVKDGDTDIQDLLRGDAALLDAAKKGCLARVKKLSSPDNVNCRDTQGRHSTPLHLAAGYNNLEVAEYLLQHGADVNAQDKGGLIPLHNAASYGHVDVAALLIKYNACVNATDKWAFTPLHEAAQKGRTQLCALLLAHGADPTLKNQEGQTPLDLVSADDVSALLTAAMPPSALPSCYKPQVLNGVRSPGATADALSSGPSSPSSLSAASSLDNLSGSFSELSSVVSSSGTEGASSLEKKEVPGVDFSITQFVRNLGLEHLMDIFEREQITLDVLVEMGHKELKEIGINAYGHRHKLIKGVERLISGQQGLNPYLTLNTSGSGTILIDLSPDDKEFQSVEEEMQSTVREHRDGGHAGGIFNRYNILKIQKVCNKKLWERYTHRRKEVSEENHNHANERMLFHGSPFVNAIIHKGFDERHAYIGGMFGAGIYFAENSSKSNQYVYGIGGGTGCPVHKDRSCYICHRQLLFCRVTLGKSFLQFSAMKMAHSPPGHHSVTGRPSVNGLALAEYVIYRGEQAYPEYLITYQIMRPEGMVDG
Experiment: biochemical
Settings: read-out: TNKS2 IC50; > = less than 50% inhibition at highest concentration
So basically: is IC50 under 5 µM? Then T. Not under? Then F.

Study these solved cases before continuing.
- Cc1ccc2c(c1)sc1nnc(NCc3ccc(Cl)cc3)n12: F
- Cc1ccc2c(c1)sc1nnc(SCc3ccc(Cl)cc3)n12: F
- CCc1ccc2c(c1)sc1nncn12: F
- Cc1ccc2sc3nncn3c2c1: T
- CSc1nnc2sc3cc(C)ccc3n12: F
- c1ccc2c(c1)sc1nncn12: T
- CC(C)c1ccc2c(c1)sc1nncn12: F
- COc1ccc(OC)c2c1sc1nnc(NC(=O)C(C)(C)C)n12: F

Identify whether the compound `Oc1cccc2c1sc1nncn12` records IC50 below 5 µM.
F

Identify whether the compound `COc1ccc(OC)c2c1sc1nncn12` records IC50 below 5 µM.
T

Identify whether the compound `Cc1cc(C)c2c(c1)sc1nncn12` records IC50 below 5 µM.
T

Identify whether the compound `Cc1cccc2c1sc1nncn12` records IC50 below 5 µM.
T

###

Target: PARP2 (Homo sapiens, UniProt Q9UGN5)
Construct: made in house
Sequence (Q9UGN5 whole entry): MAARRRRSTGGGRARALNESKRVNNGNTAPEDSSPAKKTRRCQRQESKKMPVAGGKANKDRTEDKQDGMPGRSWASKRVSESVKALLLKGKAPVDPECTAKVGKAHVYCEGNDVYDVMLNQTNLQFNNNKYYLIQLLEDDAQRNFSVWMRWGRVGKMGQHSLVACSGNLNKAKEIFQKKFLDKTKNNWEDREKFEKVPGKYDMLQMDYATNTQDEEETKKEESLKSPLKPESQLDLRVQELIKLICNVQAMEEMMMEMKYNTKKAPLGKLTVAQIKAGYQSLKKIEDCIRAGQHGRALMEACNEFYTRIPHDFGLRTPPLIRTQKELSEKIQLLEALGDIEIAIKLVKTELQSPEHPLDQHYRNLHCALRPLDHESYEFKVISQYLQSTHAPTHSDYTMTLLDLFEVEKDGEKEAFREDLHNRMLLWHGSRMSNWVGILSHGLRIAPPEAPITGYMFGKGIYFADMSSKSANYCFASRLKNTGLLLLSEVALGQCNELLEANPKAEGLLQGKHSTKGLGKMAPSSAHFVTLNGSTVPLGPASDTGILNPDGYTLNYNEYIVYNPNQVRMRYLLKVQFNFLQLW
Test: biochemical
Format: biochemical
Settings: > = less than 50% inhibition at highest concentration; ≫ = no inhibition; read-out: PARP2 IC50
pIC50: −log10 of the molar value.
Threshold rule: pIC50 greater than or equal to 5 is 1; below that, 0.

Study these solved cases before continuing.
- Oc1cccc2c1sc1nncn12: 0
- Clc1ccc2c(c1)sc1nncn12: 1
- COc1cc(OC)c2sc3nncn3c2c1: 0
- COc1ccc(OC)c2c1sc1nnc(S)n12: 0
- COc1ccc(OC)c2c1sc1nnc(NC(C)=O)n12: 0

Determine whether measured pIC50 meets or exceeds 5 for `Cc1cc(C)c2c(c1)sc1nncn12`
1

Determine whether measured pIC50 meets or exceeds 5 for `Cc1ccc2c(c1)sc1nnc(SCc3ccc(Cl)cc3)n12`
0

Determine whether measured pIC50 meets or exceeds 5 for `CCc1ccc2c(c1)sc1nncn12`
1

Determine whether measured pIC50 meets or exceeds 5 for `CC(C)c1ccc2c(c1)sc1nncn12`
1

Determine whether measured pIC50 meets or exceeds 5 for `Cc1ccc2c(c1)sc1nncn12`
1

Determine whether measured pIC50 meets or exceeds 5 for `COc1ccc2sc3nncn3c2c1`
1

Determine whether measured pIC50 meets or exceeds 5 for `Oc1ccc(O)c2c1sc1nncn12`
1

Determine whether measured pIC50 meets or exceeds 5 for `c1ccc2c(c1)sc1nncn12`
1

Determine whether measured pIC50 meets or exceeds 5 for `Cc1ccc2sc3nncn3c2c1`
1

Determine whether measured pIC50 meets or exceeds 5 for `COc1cccc2c1sc1nncn12`
0

Determine whether measured pIC50 meets or exceeds 5 for `Cc1ccc2c(c1)sc1nnc(O)n12`
0

Determine whether measured pIC50 meets or exceeds 5 for `Cc1ccc2c(c1)sc1nnc(NCc3ccc(Cl)cc3)n12`
0
